Target: UniProt P23945
Sequence (P23945 18-695): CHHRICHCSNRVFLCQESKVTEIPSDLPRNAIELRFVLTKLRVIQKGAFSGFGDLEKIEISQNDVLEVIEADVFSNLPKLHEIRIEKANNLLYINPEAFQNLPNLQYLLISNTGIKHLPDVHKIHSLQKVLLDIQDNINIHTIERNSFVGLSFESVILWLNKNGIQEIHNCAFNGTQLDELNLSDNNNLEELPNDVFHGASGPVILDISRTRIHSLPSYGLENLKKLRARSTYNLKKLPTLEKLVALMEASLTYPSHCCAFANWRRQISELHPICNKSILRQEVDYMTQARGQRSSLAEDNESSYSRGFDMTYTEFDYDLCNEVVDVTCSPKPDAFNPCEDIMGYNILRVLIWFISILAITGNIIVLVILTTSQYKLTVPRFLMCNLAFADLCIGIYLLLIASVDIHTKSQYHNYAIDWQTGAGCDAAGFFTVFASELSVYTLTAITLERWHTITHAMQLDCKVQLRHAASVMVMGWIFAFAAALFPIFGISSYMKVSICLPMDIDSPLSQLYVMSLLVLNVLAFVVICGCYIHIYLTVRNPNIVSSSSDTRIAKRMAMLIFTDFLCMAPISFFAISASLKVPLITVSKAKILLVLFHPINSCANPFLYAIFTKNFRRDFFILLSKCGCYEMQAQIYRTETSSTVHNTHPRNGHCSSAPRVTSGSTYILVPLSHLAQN
Test: hFSHRago (CHO luc): agonistic activity at the human FSH receptor expressed in CHO cells, CRE-luciferase reporter
Conditions: CHO cells stably transfected with human FSH receptor and CRE/luciferase reporter; 4 hours of incubation
pEC50: −log10 of the molar value.

# Compound, Assayed Target, pEC50
measured = [
    ("COc1cc2c(cc1OCCCOC1CCCCO1)-c1c(-c3cccs3)cc(C(=O)N(C)C(C)(C)C)n1CC2 (stereo not drawn) [Example 70c]", "UniProt P23945", 6.81),
    ("COc1cc2c(cc1OC(C)C)-c1c(-c3cccs3)c(C#N)c(C(=O)N3CCCN(C(=O)C4CCC4)CC3)n1CC2 [Example 7d]", "UniProt P23945", 9.52),
    ("CCC1CCCN1C(=O)c1cc(-c2cccs2)c2n1CCc1cc(OC)c(OC(C)C)cc1-2 (stereo not drawn) [Example 27]", "UniProt P23945", 7.79),
    ("CN(C(=O)c1cc(-c2cccs2)c2n1CCc1ccc(NS(=O)(=O)N(C)C)cc1-2)C(C)(C)C [Example 103]", "UniProt P23945", 6.12),
    ("COc1cc2c(cc1OC(C)C)-c1c(-c3cccs3)cc(C(=O)CC(C)(C)C)n1CC2 [Example 45]", "UniProt P23945", 7.19),
    ("COc1cc2c(cc1OC(C)C)-c1c(-c3cccs3)cc(C(=O)N3C[C@H]4C[C@@H](NC(C)=O)C[C@H]4C3)n1CC2 [Example 25]", "UniProt P23945", 7.34),
    ("CCCCN1CCN(C(=O)c2cc(-c3cccs3)c3n2CCc2cc(OC)c(OCC(=O)OCC)cc2-3)CCC1=O [Example 14c]", "UniProt P23945", 7.96),
    ("COc1cc2c(cc1OC(C)C)-c1c(-c3ccccn3)cc(C(=O)N3CCCN(C(=O)c4ccccn4)CC3)n1CC2 [Example 35]", "UniProt P23945", 6.61),
    ("COc1cc2c(cc1OC(C)C)-c1c(-c3cccs3)cc(C(=O)N3CCCN(C(=O)C4(SC)CCC4)CC3)n1CC2 [Example 9]", "UniProt P23945", 7.79),
    ("COc1cc2c(cc1N)-c1c(-c3cccs3)cc(C(=O)N(C)C(C)(C)C)n1CC2 [Example 95]", "UniProt P23945", 7.35),
    ("COc1cc2c(cc1OC(C)C)-c1c(-c3cccs3)cc(C(=O)N3CCCC3c3cccc(F)c3)n1CC2 (stereo not drawn) [Example 28]", "UniProt P23945", 6.12),
    ("CCOC(=O)Nc1cc2c(cc1OC)CCn1c(C(=O)N3CCCC3(C)C)cc(-c3cccs3)c1-2 [Example 99]", "UniProt P23945", 7.66),
    ("COc1cc2c(cc1OC(C)C)-c1c(-c3cccs3)cc(C(=O)N[C@@H]3CCCN(C(C)=O)C3)n1CC2 [Example 34c]", "UniProt P23945", 6.60),
    ("COc1cc2c(cc1CC(C)C)-c1c(-c3cccs3)cc(C(=O)N(C)C(C)(C)CO)n1CC2 [Example 81]", "UniProt P23945", 8.22),
    ("COc1cc2c(cc1OC(C)C)-c1c(-c3cccs3)cc(C(=O)C(C)N3CCCN(C(C)=O)CC3)n1CC2 (stereo not drawn) [Example 49]", "UniProt P23945", 6.70),
    ("COc1cc2c(cc1OC(C)C)-c1c(-c3cccs3)cc(C(=O)N3CCCN(C(C)=O)CCC3)n1CC2 [Example 16]", "UniProt P23945", 8.30),
    ("COc1cc2c(cc1OC(C)C)-c1c(-c3cccs3)cc(C(=O)N3CCCN(C(=O)C4(Br)CCC4)CC3)n1CC2 [Example 8]", "UniProt P23945", 8.17),
    ("COc1cc2c(cc1C(C)=O)-c1c(-c3cccs3)cc(C(=O)N3CCCC3(C)C)n1CC2 [Example 122]", "UniProt P23945", 8.70),
    ("COc1cc2c(cc1C(=O)N1CCOCC1)-c1c(-c3cccs3)cc(C(=O)N(C)C(C)(C)C)n1CC2 [Example 86]", "UniProt P23945", 7.16),
    ("COc1cc2c(cc1OC(C)C)-c1c(-c3cccs3)c(C=NO)c(C(=O)N(C)C(C)(C)C)n1CC2 [Example 42]", "UniProt P23945", 8.92),
    ("COc1cc2c(cc1OC)-c1c(C3=CCCCC3)cc(C(=O)N(C)C(C)(C)C)n1CC2 [Example 110]", "UniProt P23945", 7.12),
    ("CCOC(=O)CN(C)C(=O)c1cc(-c2ccsc2)c2n1CCc1cc(OC)c(OC)cc1-2 [Example 119c]", "UniProt P23945", 7.38),
    ("COc1cc2c(cc1C(=O)NCCO)-c1c(-c3cccs3)cc(C(=O)N(C)C(C)(C)C)n1CC2 [Example 87]", "UniProt P23945", 7.62),
    ("COc1cc2c(cc1C#N)-c1c(-c3cccs3)cc(C(=O)N(C)C(C)(C)C)n1CC2 [Example 83]", "UniProt P23945", 8.37),
    ("COc1cc2c(cc1OC)-c1c(-c3cccs3)cc(C(=O)N3CCCN(C(=O)C4(C)CCC4)CC3)n1CC2 [Example 104]", "UniProt P23945", 8.52),
    ("COc1cc2c(cc1OC(C)C)-c1c(Br)cc(C(=O)N(C)C(C)(C)C)n1CC2 [Example 37c]", "UniProt P23945", 6.63),
    ("COc1cc2c(cc1OC(C)C)-c1c(-c3cccs3)cc(C(=O)N3CCCN(C(C)=O)CC3)n1CC2 [Example 12a]", "UniProt P23945", 8.28),
    ("COC1=CC2CCn3c(C(=O)N4CCCN(C(=O)C5CCC5)CC4)cc(-c4cccs4)c3C2C=C1Br (stereo not drawn) [Example 82]", "UniProt P23945", 8.24),
    ("COc1cc2c(cc1OCCN=[N+]=[N-])-c1c(-c3cccs3)cc(C(=O)N(C)C(C)(C)C)n1CC2 [Example 65f]", "UniProt P23945", 8.15),
    ("CCN(C(=O)c1cc(-c2ccsc2)c2n1CCc1cc(Br)c(OC)cc1-2)C(C)C [Example 117]", "UniProt P23945", 5.96),
]
